Known protein stability index of a selection of sequences
method.description: protein stability index of a GFP-peptide fusion (GPS, HEK-293T) (PSI 1-6); higher = more stable;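 note: 24-mer peptide tiles fused after GFP, lentivirally expressed, FACS-sorted into six equal bins by GFP/DsRed ratio, decoded by Illumina sequencing, PSI is the read-weighted mean bin number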
study.conditions: treatment: DMSO; c terminus: a fixed tail appended
reported.metric: protein stability index

>  <entry.sequence>
EESKEPKEEKQRRRCKPKKPTRRD [GNAS]

>  <readout.number>
5.42

$$$$
>  <entry.sequence>
MEEAAVASVVLPARELQEALPEAP [BCL2L13]

>  <readout.number>
5.27

$$$$
>  <entry.sequence>
PQTPEPVEGRKHVDVQTELYLEEI [RSPH3]

>  <readout.number>
3.78

$$$$
>  <entry.sequence>
SEAQLTDAETSKLIYDFIEDQGGL [WAS]

>  <readout.number>
4.53

$$$$
>  <entry.sequence>
LIILWKNGERESGLRSLRLFQKLE [WDR41]

>  <readout.number>
2.15

$$$$
>  <entry.sequence>
MVPVENTEGPSLLNQKGTAVETEG [SLC2A12]

>  <readout.number>
5.62

$$$$
>  <entry.sequence>
AIPIKSWFSDPSDTALLNLLPMLD [CTDNEP1]

>  <readout.number>
2.33

$$$$
>  <entry.sequence>
SAGVPPSAPLQGAVPPTSSVPPVA [SNAP91]

>  <readout.number>
4.79

$$$$
>  <entry.sequence>
VVYSCVEGKMYTARKGKGAFCNGQ [IMPA1]

>  <readout.number>
2.33

$$$$
>  <entry.sequence>
CIENNIDLQVNRNFSLATNTKYSV [R3HDM1]

>  <readout.number>
2.59

$$$$
>  <entry.sequence>
KVHMKDVMSALWVSGLDSSYLREQ [GAN]

>  <readout.number>
2.1

$$$$
>  <entry.sequence>
AVLLQLYVATEAILIALVGATPSY [SLC22A15]

>  <readout.number>
3.33

$$$$
>  <entry.sequence>
RPPGHHAQHSLMDGYCMFNHVAVA [HDAC6]

>  <readout.number>
2.4

$$$$
>  <entry.sequence>
PEFDYLKSLEIEEKINKIKWLPQQ [PPP2R2C]

>  <readout.number>
3.52

$$$$
>  <entry.sequence>
EMHTALMEACMDGHVEVARLLLDS [ANKRD17]

>  <readout.number>
2.38

$$$$
>  <entry.sequence>
SAALFYLTNSEYRSEQSVKLRRQV [ZER1]

>  <readout.number>
2.85

$$$$
>  <entry.sequence>
YLCFLLAVLLQLYVATEAILIALV [SLC22A15]

>  <readout.number>
2.64

$$$$
>  <entry.sequence>
DQFDKDLPVYLKKDPAYFYGYVYF [DENND6A]

>  <readout.number>
2.46

$$$$
>  <entry.sequence>
LDMDDGTLSFIVDGQYMGVAFRGL [SPSB1]

>  <readout.number>
2.61

$$$$
>  <entry.sequence>
TCSSCLLRAPTISDLLNDQDLLDV [EDARADD]

>  <readout.number>
2.57

$$$$
>  <entry.sequence>
SSFFTCNQKCQLRLLKTLETSRSH [ATP23]

>  <readout.number>
2.44

$$$$
>  <entry.sequence>
SLNRACHQQNKIKDLQKEQKTLQV [CEP70]

>  <readout.number>
3.53

$$$$
>  <entry.sequence>
PQFLHEGLSKPVYVINWFMSFGPE [FAM104B]

>  <readout.number>
2.68

$$$$
>  <entry.sequence>
PLHVHEEEGILVAVGQDCYTRIWS [DCAF4]

>  <readout.number>
2.67

$$$$
>  <entry.sequence>
YSSEMKTEDELRVRHLEEENRGIV [AUH]

>  <readout.number>
4.78

$$$$
>  <entry.sequence>
KLKPLGEAEREFILNLKKKECKDR [NLN]

>  <readout.number>
4.17

$$$$
>  <entry.sequence>
KSHLIFPQPNYADTLISQESCEKN [PCDHGA10]

>  <readout.number>
4.32

$$$$
>  <entry.sequence>
LLCAVCYDPFRDAVTLRCGHNFCR [TRIM35]

>  <readout.number>
2.38

$$$$
>  <entry.sequence>
GISNALHRLKLRLAIQEMVSLTSP [PPFIA4]

>  <readout.number>
2.46

$$$$
>  <entry.sequence>
HIIHVWEETGSRFHNCLIQLYCEK [VPS39]

>  <readout.number>
2.44

$$$$
>  <entry.sequence>
LTTKDYMEMYNVIMTVKEDQFSAL [SLC6A17]

>  <readout.number>
2.37

$$$$
>  <entry.sequence>
ASAEAPGDSGERSEGEAMEICSEP [ZNF511]

>  <readout.number>
5.54

$$$$
>  <entry.sequence>
YQNELHKFLIWDTAGQERFRALAP [RAB22A]

>  <readout.number>
2.29

$$$$
>  <entry.sequence>
SPEKEEQYIAQFTSQFLSLQCLQA [PRAME]

>  <readout.number>
2.84

$$$$
>  <entry.sequence>
DGTAENGIHPLSSSEVDELIHKAD [PALM]

>  <readout.number>
5.38

$$$$
>  <entry.sequence>
CPLCTSDRGSCVSTTEGIQLAKEL [RHOBTB3]

>  <readout.number>
3.23

$$$$
>  <entry.sequence>
ILIVDWDVHHGNGTQHMFEDDPSV [HDAC6]

>  <readout.number>
2.18

$$$$
>  <entry.sequence>
IDREVDLMMRGVKHHNLEGLRKRI [IQUB]

>  <readout.number>
3.29

$$$$
>  <entry.sequence>
VVFHCEFSSERGPRMCRYVRERDR [CDC25A]

>  <readout.number>
2.41

$$$$

Data origin, for the record: the supplement of paper PMC10567573
